Hi there, I'd appreciate the recorded GI50 for every entry that follows.
Test system: SK-MEL-28
Protocol: NCI tumour cell line growth inhibition, 48 h
The source made the active and inactive calls. Rule as the data show it: active = GI50 up to about 1.1 µM and inactive = higher.

Worked cases, answers included:
O=C(CCN1CCCCC1)N1CCc2c([nH]c3ccccc23)C1c1cccnc1 (stereo not given) | 19.5 µM (inactive)
O=C(Nc1ccc([N+](=O)[O-])cc1Cl)c1cccc([N+](=O)[O-])c1O | 1.6 µM (inactive)
COc1ccc(COCC[C@H](C)OC2OC(CO[Si](C)(C)C(C)(C)C)C(O)C(O)C2O)cc1 (stereo not given in full) | > 100 µM (inactive)

Return reported GI50 values for all items listed beneath this line.
1. O=C1CSC(c2ccc([N+](=O)[O-])cc2)N1c1nc(-c2ccc3c(c2)CCCC3)cs1 (stereo not given)
2. CC1=NN(c2nc(N)nc(/C(C#N)=C\c3cccc([N+](=O)[O-])c3)n2)C(C)(C)C1

// result
> 100 µM (inactive)
19.1 µM (inactive)
